- Species: Rattus norvegicus
- Assay Text: Open TG-GATES - Regimen: Single
- Assay type: toxicity, organism-based, Sprague-Dawley
- Parameters: regimen Single, gender Male, age 6 weeks
- Condition Description: in vivo, po, 0 mg/kg, 9 h, tissue Blood, route gavage, dose level Control
Measure: Hb (g/dL)
Number only, in g/dL; omit the unit.

Previously resolved entries follow.
{"columns": ["Compound", "Hb [g/dL]"],
 "data": [
  ["Brc1ccccc1", 12.9],
  ["COC(=O)C1=C(C)NC(C)=C(C(=O)OC)C1c1ccccc1[N+](=O)[O-]", 13.1],
  ["Nc1c2c(nc3ccccc13)CCCC2", 13.2],
  ["CN(C)CCC(c1ccc(Cl)cc1)c1ccccn1 (stereo unspecified)", 12.7]
]}

Query block: Recorded Hb for CCOc1ccc(NC(C)=O)cc1 , please?
Result block: 13.2

Query block: What measured Hb goes with NC1=NC(=O)C(c2ccccc2)O1 (stereo unspecified) ?
Result block: 12.8

Entry source: ChEMBL document CHEMBL3885861
